Hello, the source for this data is the supplement of paper PMC9170038, in case you need it.

Tested on: MS2 coat protein
EXPERIMENTAL_PROTOCOL: apparent KD of MS2 coat protein, switch ON state; designed switch direction (-1 OFF switch, 1 ON switch): -1; higher = weaker reporter binding
REPORTED_CONDITIONS: FMN input: 0 or 200 uM; Eterna round: R93 (includes R88 designs)
REPORTED_PROPERTY: apparent KD of MS2 coat protein (nM)
Response body: numeric value in nM, unit text excluded.

Enquiry: Look up apparent KD of MS2 coat protein of GAGGUAUGAGGAUAUACAUAGAUACAGACACAUGUUCAAGUACAUGAGGAUCACCCAUGUAGAAGGCAUAUAUC [Mat - Same state - Mayanna Mod - D105] and report it.
Return: 22

Enquiry: Look up apparent KD of MS2 coat protein of CUCUUGUAAGGAUAUCACCACACAAAAAAAAAAAAGUGUGGUGAGAAGGUACAUGAGGAUCACCCAUGUACUAA [Banishment 12 - Jieux - Exclusion 4] and report it.
Return: 23.6

Enquiry: Look up apparent KD of MS2 coat protein of AUAGUACAUGAGGAUCACCCAUGUCAGGAUAUUCGAAAUGAAAAAAAAAAAAAGUGAAGGAGAAGGGACUAUAA [EX1 Malc#12] and report it.
Return: 21.5

----------
System: MS2 coat protein
EXPERIMENTAL_PROTOCOL: apparent KD of MS2 coat protein; designed switch direction (-1 OFF switch, 1 ON switch): -1; higher = weaker reporter binding
REPORTED_CONDITIONS: Eterna round: R95; input ligand: none
apparent KD of MS2 coat protein below 20 nM gives NOT MET; apparent KD of MS2 coat protein at or above it gives MET.

Some solved entries appear below for comparison.
Enquiry: Textbook exercise: given the entry AAGUACCGUCACGAUAGUGAUGGUACAGCAAGCAGUGAAACAUGAGGAUCACCCAUGUCCUCAAUUGCUCGUCUUAU [Sensor 3 - 78] (puzzle: Sensor v3, turn-off variant 2) , state whether its apparent KD of MS2 coat protein is greater than or equal to 20 nM.
Return: MET

Enquiry: Textbook exercise: given the entry CAGGACUUAGGAUAUCAUGUGCGAGACAUGAGGAUCACCCAUGUAGGAAGCCGUCGCGGGUGAGAAGGAGGGCGAU [Exclusion 5 S1] (puzzle: Exclusion 5) , state whether its apparent KD of MS2 coat protein is greater than or equal to 20 nM.
Return: MET

Enquiry: Textbook exercise: given the entry GGAUCGAAAGUGAGGAUAUACCACUGGAUACAGUGGUAGAAGGCACAUGAGGAUCACCCAUGUCUCUACGAUCC [Fiskers BMX 4 - 42] (puzzle: Brourd's mod of Exclusion 4) , state whether its apparent KD of MS2 coat protein is greater than or equal to 20 nM.
Return: NOT MET

Enquiry: Textbook exercise: given the entry GGAGAACAUGAGGAUCACCCAUGUAAGGAUAUGCAAAAGGAUAUAGAAGGAAAAAAAAGCAGAAGGUACAAAGG [salish99-ex1_r3_101] (puzzle: Exclusion 1) , state whether its apparent KD of MS2 coat protein is greater than or equal to 20 nM.
Return: MET

More entries:
Enquiry: Textbook exercise: given the entry UUUUAACAUGAGGAUCACCCAUGUGAGGAUAUGGUAUUUUUUUUUUUUUUUUUUUUUUCCAGAAGGCACAUUUU [My solution] (puzzle: Exclusion 1) , state whether its apparent KD of MS2 coat protein is greater than or equal to 20 nM.
Return: MET

Enquiry: Textbook exercise: given the entry UAAAGGCUAGGAUAUCGCACCUUCGACAUGAGGAUCACCCAUGUAUGUCGAUGGUAAAAUCGAGAAGGAGCGAGAA [Artiedqu] (puzzle: Exclusion 5) , state whether its apparent KD of MS2 coat protein is greater than or equal to 20 nM.
Return: NOT MET

Enquiry: Textbook exercise: given the entry GAUUAUGCGAGCUUUAGGGACAUGAGGAUCACCCAUGUUCGUCUUAUUAAUCUGGGUGCGCUAACAUACCUAAAUCU [JMF 52] (puzzle: Sensor v3, turn-off variant 1) , state whether its apparent KD of MS2 coat protein is greater than or equal to 20 nM.
Return: MET

Enquiry: Textbook exercise: given the entry GCAAGCGAUUAGGCUCGUCUUAUAAAGAAAAGAAUGAAAACAUGAGGAUCACCCAUGUAAGUGGGAAAGUUGAAGUG [JR_SV3TOV2_Sub009] (puzzle: Sensor v3, turn-off variant 2) , state whether its apparent KD of MS2 coat protein is greater than or equal to 20 nM.
Return: MET

Enquiry: Textbook exercise: given the entry GCAGGAUAAGUGAGGAUAUACCUAUGGAUACAUAGGUAGAAGGCACAUGAGGAUCACCCAUGUUACUCGCCUGC [Fiskers BMX 4 - 75] (puzzle: Brourd's mod of Exclusion 4) , state whether its apparent KD of MS2 coat protein is greater than or equal to 20 nM.
Return: NOT MET
